Ref: PubChem BioAssay (NCI)

- Test system: HCC-2998 colon
- protocol summary: NCI tumour cell line growth inhibition, 48 h
Each record here notes measured TGI.
result type: TGI

compound	assayed system	result type	result value
Clc1ccc(OCc2nnc(CCCCCCCCc3nnc(COc4ccc(Cl)cc4Cl)o3)o2)c(Cl)c1	HCC-2998 colon	TGI	> 100 µM
Cc1ccc(S(=O)(=O)ON/N=C2/C3OC3[C@@H]3CCCC[C@H]23)cc1 (stereo partly specified)	HCC-2998 colon	TGI	> 100 µM
CC(Nc1cc(Cl)cc(Cl)c1)c1ccncc1 (stereo unspecified)	HCC-2998 colon	TGI	37.1 µM
CSc1n[n+](C)cc(N)c1N	HCC-2998 colon	TGI	> 100 µM
CC1=C(C#N)S(=O)(=O)c2c(oc(C)c2C)N1	HCC-2998 colon	TGI	> 100 µM
O=C1/C(=C\c2cccs2)Oc2ccccc21	HCC-2998 colon	TGI	> 100 µM
COC(=O)c1ccc(OCc2ccc3oc(=O)c(-c4ccccc4)nc3c2)cc1	HCC-2998 colon	TGI	> 100 µM
CCCCCc1c(CCCC)c(=O)[nH]c2cc(CNCC(OC)OC)ccc12	HCC-2998 colon	TGI	7.62 µM
COc1ccc(N=Cc2ccc(N(CCC#N)CCC#N)cc2)cc1	HCC-2998 colon	TGI	> 88.1 µM
COc1ccc(-c2cc(-c3ccc(Nc4ccnc5cc(Cl)ccc45)cc3)nc(N)c2C#N)c2ccccc12	HCC-2998 colon	TGI	> 100 µM
COC1C(=O)CCC2(CO2)C1(O)C1(C)OC1CCC(C)C (stereo unspecified)	HCC-2998 colon	TGI	> 100 µM

====

Each record here notes measured TGI.
- Test system: MDA-N
- protocol summary: NCI tumour cell line growth inhibition, 48 h

molecule	unit abbrev	qualifier operator	TGI
Cc1c2cc[n+](C)cc2c(C)c2c1[nH]c1ccccc12	µM	=	19.6
O=c1[nH]cnc2c1ncn2[C@H]1CO[C@@H](CO)[C@@H]1O	µM	>	100
COC1CCC(OC2CC(C3(C)CCC4(CC(O)C(C)C(C(C)/C=C(\C)C(=O)C(C)CC(C)C(=O)O)O4)O3)OC3(OC(C4OC(O)(CO)C(C)CC4C)CC3C)C2C)OC1C (centres undefined)	µM	=	0.549
NS(=O)(=O)c1ccc(/C=C/c2cccc(O)c2)cc1	µM	>	100
CCOC(=O)/C(=C\c1ccc(CO)o1)P(=O)(OCC)OCC	µM	=	47.8
COc1cccc(C2c3cc4c(cc3OC(N3CCOCC3)C2C)OCO4)c1O (centres undefined)	µM	=	4.58
CC1=C(C#N)S(=O)(=O)c2c(oc(C)c2C)N1	µM	>	100
CC(O)C(NC(=O)C(CS)NC(=O)C(CO)NC(=O)C(CCCCN)NC(=O)C(Cc1c[nH]c2ccccc12)NC(=O)C(Cc1ccc(O)cc1)NC(=O)C(CS)NC(=O)C(N)Cc1ccccc1)C(N)=O (centres undefined)	µM	>	25
OC1CN=C2c3ccccc3C(O)(c3ccc(Cl)cc3)N2C1 (centres undefined)	µM	>	100
COc1cc2c(cc1OCCCC(=O)Nc1cc(C(=O)Nc3cc(C(=O)NCCCN(C)C)n(C)n3)n(C)n1)N=CC1CCCN1C2=O (centres undefined)	µM	=	31.6
COc1nc2c(c(=O)n1C)N[C@@H]1[C@@H](O)[C@H](O)CO[C@@H]1N2	µM	>	100
O=C1/C(=C\c2cccs2)Oc2ccccc21	µM	>	100
CC1(C)N=C(N)N=C(N)N1c1cccc(CSc2ccccc2)c1	µM	>	100
CC(Nc1cc(Cl)cc(Cl)c1)c1ccncc1 (centres undefined)	µM	=	45.6
Cc1nn(-c2ccccc2)c(C)c1/C=N/NC(=O)c1sc(=S)n(-c2ccccc2)c1N	µM	>	100
c1cc(-c2sc(-c3ccncc3)c(-c3ccncc3)c2-c2ccncc2)ccn1	µM	=	29
CC(NC(=O)c1ccc(OP(=O)(OCC2=CC(=O)c3ccccc3C2=O)N(C)CCCCCl)cc1)c1ccc(OCC2CCCCC2)c(C(N)=O)c1 (centres undefined)	µM	=	13
COc1cccc(-c2cc(=O)c3cc(C)cnc3[nH]2)c1	µM	=	0.0213
O=S(=O)(O)c1ccc2cc(N=Nc3cc(S(=O)(=O)O)c4cccnc4c3O)ccc2c1	µM	>	100

====

Each record here notes measured TGI.
- System: NCI/ADR-RES ovarian
- protocol summary: NCI tumour cell line growth inhibition, 48 h

compound	qualifier operator	TGI [µM]
O=S1(=O)c2ccccc2N2CCCc3cc(Cl)cc1c32	>	100
COC(=O)C(Cc1ccccc1)NC(=O)CNC(=O)CSc1nnc(COc2ccc(Cl)cc2)n1-c1ccccc1 (centres undefined)	=	42
O=C1NC(=O)C(c2ccccc2Cl)=C1Nc1cccc(O)c1	>	25
COc1cc(C2c3cc4c(cc3OC(N3CCOCC3)C2C)OCO4)cc(OC)c1O (centres undefined)	=	18.4
CCOC(=O)/C=C/c1ccc(C(=O)OCC)[nH]1	>	100
CN(C)Cc1cc(C(=O)O)cc(CN(C)C)c1O	>	100
CC(Nc1cc(Cl)cc(Cl)c1)c1ccncc1 (centres undefined)	=	63.7
OCC1OC(N2C=C(c3nc4ccccc4s3)C3C=CC=CC32)C(O)C1O (centres undefined)	=	36.9
O=C1CC(O)c2c(Cl)sc(Cl)c21 (centres undefined)	=	59.2
CCN1C/C(=C\c2ccc(Cl)cc2)C2=NN(c3ccccc3)C(c3ccc(Cl)cc3)C2C1 (centres undefined)	>	100
C=C(CNCCO)[C@@H]1CC[C@]2(CO)CC[C@]3(C)[C@H](CC[C@@H]4[C@@]5(C)CCC(NCCc6ccc(O)cc6)C(C)(C)[C@@H]5CC[C@]43C)[C@@H]12 (some centres undefined)	=	5.1
CC(=O)Oc1ccc2c(c1)CC[C@@H]1C2[C@@H](O[N+](=O)[O-])C[C@@]2(C)C1CC[C@@H]2O (some centres undefined)	=	97.3
CCCCc1cc(O)ccc1O	>	100
CC/C=C\C[C@H](O)C/C=C1/C(=O)C=C[C@@H]1C/C=C\CCCC(N)=O	=	12.3

====

Each record here notes measured TGI.
- Tested on: CAKI-1 renal
- protocol summary: NCI tumour cell line growth inhibition, 48 h

compound	assayed system	TGI
Cn1c2ccccc2n2c3nc4ccccc4nc3c(C#N)c12	CAKI-1 renal	> 100 µM
O=C1C=C(c2cc(Br)c(O)c(Br)c2)/C(=C/c2cc(Br)c(O)c(Br)c2)O1	CAKI-1 renal	> 75 µM
CN(C)CCOc1ccc(-c2c(Oc3ccc(Cl)cc3)c(=O)oc3ccccc23)cc1	CAKI-1 renal	39.6 µM
CCc1ccc(C2=C(O)C(=O)C(c3ccc(CC)cc3)=C(O)C2=O)cc1	CAKI-1 renal	5.27 µM
CCc1cccc(C)c1NC(=O)CC1Sc2ccccc2NC1=O (stereo not given)	CAKI-1 renal	> 100 µM

====

- Test system: HCT-116 colon
- protocol summary: NCI tumour cell line growth inhibition, 48 h
result type: TGI (µM)

compound	qualifier operator	result value
CCc1cccc(C)c1NC(=O)CC1Sc2ccccc2NC1=O (configuration not stated)	>	100
Cn1nnnc1[N-]Cc1ccccc1.[Au+].c1ccc([PH+](c2ccccc2)c2ccccc2)cc1	=	13
NNC(=O)c1ccccc1NC(=O)/C(=C/c1ccccc1)NC(=O)c1ccccc1	>	100
CC(NC(=O)c1ccc(OP(=O)(OCC2=CC(=O)c3ccccc3C2=O)N(C)CCCCCl)cc1)c1ccc(OCC2CCCCC2)c(C(N)=O)c1 (configuration not stated)	=	27.5
CCc1ccc(C2=C(O)C(=O)C(c3ccc(CC)cc3)=C(O)C2=O)cc1	=	6
O=c1oc2c3ccc4ccccc4c3n(Cc3nc4ccccc4[nH]3)c2c2ccccc12	>	100
CCN(CC)C(=S)SSC1CCCCC1	=	25.8
c1ccc2c(c1)SC1Sc3ccccc3[S+]21 (configuration not stated)	>	57
COc1ccc(/C=[N+](\[O-])[C@H](COCc2ccccc2)c2ccccc2)cc1	>	100
C=C1C(=O)O[C@H]2[C@H]1CC/C(COC(=O)c1ccc(C(=O)O)s1)=C\CC[C@@]1(C)O[C@@H]21	=	2.03
COc1ccc([N+](=O)[O-])c2c(NCC(O)CO)ccnc12 (configuration not stated)	>	100
CCOC(OC1=C(C#N)CCC1)C(CC)[Se]c1ccccc1 (configuration not stated)	=	57.6

====

Each record here notes measured TGI.
- Test system: CAKI-1 renal
- protocol summary: NCI tumour cell line growth inhibition, 48 h
result type: TGI

compound	result value
CC1=C(C#N)S(=O)(=O)c2c(oc(C)c2C)N1	> 100 µM
CC(NC(=O)c1ccc(OP(=O)(OCC2=CC(=O)c3ccccc3C2=O)N(C)CCCCCl)cc1)c1ccc(OCC2CCCCC2)c(C(N)=O)c1 (centres undefined)	35.5 µM
COc1cc2ccc3c4cc(OC)c(OCc5ccccc5)cc4cnc3c2cc1OC	> 100 µM
COc1nc2c(c(=O)n1C)N[C@@H]1[C@@H](O)[C@H](O)CO[C@@H]1N2	> 100 µM
